Assay: Pharmacokinetic profiles in male SD rats (IV and PO)
Assay type: in vivo, rat
Conditions: rat, plasma, IV 1 mg/kg, PO 5 mg/kg, route for this parameter not given, read-out: VSS
Please provide measured Vd for the entries that follow.
Please give a number only; it is taken to be in L/kg.

Challenge: Dear colleague, please send me the reported Vd for `C[C@H](Nc1nc(=O)n(C2CCOCC2)c(=O)[nH]1)c1cccc(C(F)(F)F)c1` when you can.
Response given: 0.94

Challenge: # return recorded Vd for input `Cc1cccc([C@H](C)Nc2nc(=O)n(C3CCOCC3)c(=O)[nH]2)c1`
Response given: 1.17

Challenge: Report Vd, nothing else, for this compound: `C[C@H](Nc1nc(=O)n(C2CCOCC2)c(=O)[nH]1)c1cc(F)cc(Cl)c1`
Response given: 0.57

Challenge: Specify reported Vd for the compound shown: `Cc1ccc([C@H](C)Nc2nc(=O)n(C3CCOCC3)c(=O)[nH]2)c(C)c1`
Response given: 0.32

Challenge: Give a short answer stating reported Vd for `C[C@H](Nc1nc(=O)n(C2CCOCC2)c(=O)[nH]1)c1ccc(F)cc1F` .
Response given: 1.78

Challenge: Give the reported Vd for this compound. `C[C@H](Nc1nc(=O)n(C2CCOCC2)c(=O)[nH]1)c1ccc(Cl)c(Cl)c1`
Response given: 0.46

Challenge: Let me know recorded Vd for `Cc1cc([C@H](C)Nc2nc(=O)n(C3CCOCC3)c(=O)[nH]2)ccc1F` , thanks.
Response given: 0.97

Challenge: Item `C[C@H](Nc1nc(=O)n(C2CCOCC2)c(=O)[nH]1)c1ccc(F)cc1Cl` : provide Vd
Response given: 0.97

====

Molecular target: bovine cardiac myosin (Bos taurus (Bovine))
Sequence (Q9BE39 whole entry): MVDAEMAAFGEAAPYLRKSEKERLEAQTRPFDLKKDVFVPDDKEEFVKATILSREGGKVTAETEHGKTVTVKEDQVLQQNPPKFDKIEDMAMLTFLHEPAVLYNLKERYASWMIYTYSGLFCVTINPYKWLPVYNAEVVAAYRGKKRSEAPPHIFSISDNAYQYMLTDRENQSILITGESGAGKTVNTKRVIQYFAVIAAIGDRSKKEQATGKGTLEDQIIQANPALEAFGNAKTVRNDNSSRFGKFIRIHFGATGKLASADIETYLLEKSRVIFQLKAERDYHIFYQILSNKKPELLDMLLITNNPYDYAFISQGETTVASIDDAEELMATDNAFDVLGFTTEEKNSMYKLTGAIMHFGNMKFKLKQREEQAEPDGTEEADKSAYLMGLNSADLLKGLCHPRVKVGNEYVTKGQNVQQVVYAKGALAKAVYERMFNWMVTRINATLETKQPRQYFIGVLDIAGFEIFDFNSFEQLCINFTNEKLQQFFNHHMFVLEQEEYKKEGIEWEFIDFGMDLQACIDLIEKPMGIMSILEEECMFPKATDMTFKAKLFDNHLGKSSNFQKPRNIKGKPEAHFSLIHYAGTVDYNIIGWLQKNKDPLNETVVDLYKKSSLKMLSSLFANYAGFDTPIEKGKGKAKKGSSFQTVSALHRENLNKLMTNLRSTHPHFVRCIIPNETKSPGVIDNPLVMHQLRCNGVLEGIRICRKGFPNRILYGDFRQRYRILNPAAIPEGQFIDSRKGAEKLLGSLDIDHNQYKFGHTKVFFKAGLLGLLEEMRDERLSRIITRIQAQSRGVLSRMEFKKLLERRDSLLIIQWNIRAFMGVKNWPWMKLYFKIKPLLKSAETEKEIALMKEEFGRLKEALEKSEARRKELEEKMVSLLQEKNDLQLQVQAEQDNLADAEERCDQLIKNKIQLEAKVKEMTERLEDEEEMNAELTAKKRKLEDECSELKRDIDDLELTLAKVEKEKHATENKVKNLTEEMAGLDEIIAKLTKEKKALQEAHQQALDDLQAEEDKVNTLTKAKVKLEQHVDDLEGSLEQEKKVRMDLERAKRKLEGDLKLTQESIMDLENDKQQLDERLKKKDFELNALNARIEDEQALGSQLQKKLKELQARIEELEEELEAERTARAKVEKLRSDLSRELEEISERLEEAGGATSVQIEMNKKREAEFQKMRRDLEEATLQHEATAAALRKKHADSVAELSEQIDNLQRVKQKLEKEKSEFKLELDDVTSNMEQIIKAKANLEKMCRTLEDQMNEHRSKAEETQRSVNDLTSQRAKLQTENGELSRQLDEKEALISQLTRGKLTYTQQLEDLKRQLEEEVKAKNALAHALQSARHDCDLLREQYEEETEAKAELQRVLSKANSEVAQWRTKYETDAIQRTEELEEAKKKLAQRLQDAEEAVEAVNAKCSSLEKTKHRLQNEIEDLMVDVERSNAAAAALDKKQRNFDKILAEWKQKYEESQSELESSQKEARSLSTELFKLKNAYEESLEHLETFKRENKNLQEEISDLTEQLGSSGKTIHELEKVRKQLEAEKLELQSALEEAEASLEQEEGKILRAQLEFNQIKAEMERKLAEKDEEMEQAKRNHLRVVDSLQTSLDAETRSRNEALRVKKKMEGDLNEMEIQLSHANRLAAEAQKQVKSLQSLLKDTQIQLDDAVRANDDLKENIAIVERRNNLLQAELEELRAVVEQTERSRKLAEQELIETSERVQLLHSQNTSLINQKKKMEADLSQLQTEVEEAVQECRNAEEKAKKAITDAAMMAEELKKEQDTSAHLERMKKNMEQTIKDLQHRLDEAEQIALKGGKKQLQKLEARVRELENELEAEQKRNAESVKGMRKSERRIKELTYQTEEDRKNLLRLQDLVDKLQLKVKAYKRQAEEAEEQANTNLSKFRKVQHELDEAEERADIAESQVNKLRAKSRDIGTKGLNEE
Sequence (P85100 whole entry partner): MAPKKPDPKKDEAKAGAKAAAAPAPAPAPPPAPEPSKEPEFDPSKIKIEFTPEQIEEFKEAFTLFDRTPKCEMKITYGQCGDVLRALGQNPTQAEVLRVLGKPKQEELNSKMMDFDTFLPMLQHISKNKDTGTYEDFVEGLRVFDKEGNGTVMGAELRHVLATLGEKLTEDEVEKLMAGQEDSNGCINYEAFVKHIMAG
Sequence (Q3SZE5 whole entry partner): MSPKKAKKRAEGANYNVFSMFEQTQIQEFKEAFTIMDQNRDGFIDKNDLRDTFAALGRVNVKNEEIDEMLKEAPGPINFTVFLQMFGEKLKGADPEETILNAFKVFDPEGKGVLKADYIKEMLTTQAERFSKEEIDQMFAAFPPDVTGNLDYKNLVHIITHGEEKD
Test: Myosin inhibitory potency: PK/LDH-coupled ATPase assay on bovine skinned cardiac myofibrils
Details: pCa=6.25, 50 μM ATP, 25° C., read-out: myosin inhibition activity IC50
What pIC50 was measured for each of the following?
The scale used: pIC50 is minus the common logarithm of the concentration in molar units.

Challenge: Tell us which pIC50 value is on record for `CC(C)n1c(=O)nc(N[C@@H](C)c2ccc(OC(F)(F)F)cc2)[nH]c1=O`
Response given: 5.76

Challenge: Determine from records and report pIC50 for `CC[C@H](Nc1nc(=O)n(C(C)C)c(=O)[nH]1)C1CCCCC1`
Response given: 5.28

Challenge: Annotate the molecule `CNC(=O)N1CCC(n2c(=O)nc(N[C@@H](C)c3cccc(C)c3)[nH]c2=O)CC1` with its measured pIC50.
Response given: 5.26

Challenge: Give the measured pIC50 for `C[C@H](Nc1nc(=O)n(C2CCOCC2)c(=O)[nH]1)c1cccc(C2CCCCC2)c1`
Response given: 6.06

Challenge: Report pIC50 for `C[C@H](Nc1nc(=O)n(C2CCOCC2)c(=O)[nH]1)c1cccc(N2CCCCC2)c1`
Response given: 5.89

Challenge: Tell me its pIC50 given `C[C@H](Nc1nc(=O)n(C2CCOCC2)c(=O)[nH]1)c1ccc(Cl)c(F)c1` as the entry.
Response given: 5.27

Challenge: For the molecule `C[C@H](Nc1nc(=O)n(C2CCOCC2)c(=O)[nH]1)c1cccc(C2CN(C(=O)OC(C)(C)C)C2)c1` , report pIC50.
Response given: 5.94

Challenge: Answer with the recorded pIC50 for the molecule listed here: CC(O)c1cccc([C@@H](Nc2nc(=O)n(C3CCOCC3)c(=O)[nH]2)C(F)F)c1 (some centres unmarked)
Response given: 5.70
